# tgt: T1, Sos-S2 peptide (Drosophila melanogaster, UniProt P26675)
# T1 chain: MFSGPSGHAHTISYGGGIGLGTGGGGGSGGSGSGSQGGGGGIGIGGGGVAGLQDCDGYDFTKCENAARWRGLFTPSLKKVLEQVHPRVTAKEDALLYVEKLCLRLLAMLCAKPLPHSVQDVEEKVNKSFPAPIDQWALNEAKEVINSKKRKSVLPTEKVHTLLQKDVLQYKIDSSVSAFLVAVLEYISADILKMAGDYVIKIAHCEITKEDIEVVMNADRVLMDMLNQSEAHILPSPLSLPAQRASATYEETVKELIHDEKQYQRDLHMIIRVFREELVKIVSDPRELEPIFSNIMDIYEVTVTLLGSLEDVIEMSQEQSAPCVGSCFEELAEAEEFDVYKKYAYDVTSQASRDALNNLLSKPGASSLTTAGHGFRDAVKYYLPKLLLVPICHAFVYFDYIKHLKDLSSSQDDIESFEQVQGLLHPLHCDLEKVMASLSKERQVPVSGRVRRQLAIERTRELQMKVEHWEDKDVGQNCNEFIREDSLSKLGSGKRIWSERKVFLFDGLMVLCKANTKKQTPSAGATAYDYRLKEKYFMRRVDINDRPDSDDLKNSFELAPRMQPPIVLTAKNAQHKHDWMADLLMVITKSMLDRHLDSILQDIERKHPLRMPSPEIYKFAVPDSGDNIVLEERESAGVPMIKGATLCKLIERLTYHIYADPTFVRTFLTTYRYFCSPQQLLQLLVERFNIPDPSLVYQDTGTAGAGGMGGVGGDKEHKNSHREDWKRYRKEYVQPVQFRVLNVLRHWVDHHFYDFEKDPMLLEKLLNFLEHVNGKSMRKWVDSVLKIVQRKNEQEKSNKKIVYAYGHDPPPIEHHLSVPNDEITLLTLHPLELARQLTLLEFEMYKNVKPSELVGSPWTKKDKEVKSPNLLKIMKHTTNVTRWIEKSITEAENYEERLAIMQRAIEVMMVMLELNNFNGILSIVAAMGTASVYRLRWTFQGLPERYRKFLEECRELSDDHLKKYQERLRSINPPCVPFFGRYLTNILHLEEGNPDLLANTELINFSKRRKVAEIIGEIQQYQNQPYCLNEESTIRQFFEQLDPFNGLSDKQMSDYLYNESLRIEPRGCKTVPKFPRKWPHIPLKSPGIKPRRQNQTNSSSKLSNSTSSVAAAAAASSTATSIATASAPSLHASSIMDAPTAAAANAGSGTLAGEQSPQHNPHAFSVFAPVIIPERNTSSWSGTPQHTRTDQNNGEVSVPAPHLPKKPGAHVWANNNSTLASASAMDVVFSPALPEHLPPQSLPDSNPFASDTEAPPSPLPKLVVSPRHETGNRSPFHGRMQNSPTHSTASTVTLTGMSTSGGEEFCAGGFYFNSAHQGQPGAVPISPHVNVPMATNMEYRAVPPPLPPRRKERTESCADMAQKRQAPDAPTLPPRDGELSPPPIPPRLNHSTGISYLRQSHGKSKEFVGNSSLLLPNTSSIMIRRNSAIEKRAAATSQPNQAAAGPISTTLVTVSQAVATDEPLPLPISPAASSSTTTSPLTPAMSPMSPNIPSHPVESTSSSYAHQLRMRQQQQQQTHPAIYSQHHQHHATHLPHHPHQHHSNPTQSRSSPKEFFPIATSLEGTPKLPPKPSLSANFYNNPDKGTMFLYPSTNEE
# assay_comment: NMR titration

{"binder": "Drk NSH3 (protein) MEAIAKHDFSATADDELSFRKTQILKILNMEDDSNWYRAELDGKEGLIPSNYIEMKNH", "Kd": "~41 µM"}

FYI, the data here is from paper PMC10532153.
